- Test system: Pseudomonas aeruginosa Migula BNCC337940
- Protocol Summary: MIC by microdilution method, sensitive Pseudomonas aeruginosa Migula
- Assay type: cell-based
- Stated Conditions: sensitive strain, 35° C., 24 h, minimum concentration with inhibition rate greater than 80%, read-out: MIC Pseudomonas aeruginosa Migula
Below, each entry is listed alongside its reported MIC.
// units = µg/mL; emit number, no label

Use these answered entries as a reference point.
[[record]]
molecule = "Clc1ccc2cc(-c3ccccc3)[nH]c2c1"
readout_kind = "MIC"
observed_result = 16

[[record]]
molecule = "Fc1ccc2[nH]c(-c3ccccc3)cc2c1"
readout_kind = "MIC"
observed_result = 256

[[record]]
molecule = "COC(=O)c1ccc2[nH]c(-c3ccccc3)cc2c1"
readout_kind = "MIC"
observed_result = 32

[[record]]
molecule = "COc1ccc2[nH]c(-c3ccccc3)cc2c1"
readout_kind = "MIC"
observed_result = 256

[[record]]
molecule = "COC(=O)c1ccc2cc(-c3ccccc3)[nH]c2c1"
readout_kind = "MIC"
observed_result = 8

[[record]]
molecule = "COc1ccc2cc(-c3ccccc3)[nH]c2c1"
readout_kind = "MIC"
observed_result = 64

[[record]]
molecule = "Brc1ccc2cc(-c3ccccc3)[nH]c2c1"
readout_kind = "MIC"
observed_result = 8

[[record]]
molecule = "[H]/N=C(/N)N[C@H]1[C@H](O)[C@@H](O)[C@H](O[C@@H]2O[C@@H](C)[C@](O)(C=O)[C@H]2O[C@@H]2O[C@@H](CO)[C@H](O)[C@@H](O)[C@@H]2NC)[C@@H](N/C(N)=N\\[H])[C@@H]1O [Streptomycin, reference compound]"
readout_kind = "MIC"
observed_result = 2


QUERY: Recorded MIC of "Fc1ccc2cc(-c3ccccc3)[nH]c2c1" , please.
RESULT: 256

QUERY: Recorded MIC of "Cc1ccc2[nH]c(-c3ccccc3)cc2c1" , please.
RESULT: 256

###

- System: Aspergillus fumigatus Fresenius BNCC338385
- Protocol Summary: MIC by microdilution method, sensitive Aspergillus fumigatus Fresenius
- Type: cell-based
- Stated Conditions: Aspergillus fumigatus, 24 h, read-out: MIC Aspergillus fumigatus Fresenius
Below, each entry is listed alongside its reported MIC.
// units = µg/mL; emit number, no label

Use these answered entries as a reference point.
[[record]]
compound = "Cc1ccc(-c2cc3ccccc3[nH]2)cc1 [Compound 8]"
readout_kind = "MIC"
unit_of_measure = "µg/mL"
observed_result = 256

[[record]]
compound = "Cc1cccc(-c2cc3ccccc3[nH]2)c1 [Compound 7]"
readout_kind = "MIC"
unit_of_measure = "µg/mL"
observed_result = 256

[[record]]
compound = "Cc1ccccc1-c1cc2ccccc2[nH]1 [Compound 2]"
readout_kind = "MIC"
unit_of_measure = "µg/mL"
observed_result = 16

[[record]]
compound = "O=[N+]([O-])c1cccc(-c2cc3ccccc3[nH]2)c1 [Compound 12]"
readout_kind = "MIC"
unit_of_measure = "µg/mL"
observed_result = 4

[[record]]
compound = "FC(F)(F)c1ccc(-c2cc3ccccc3[nH]2)cc1 [Compound 13]"
readout_kind = "MIC"
unit_of_measure = "µg/mL"
observed_result = 256


QUERY: Recorded MIC of c1ccc2[nH]c(-c3ccc4c(c3)OCO4)cc2c1 [Compound 15] , please.
RESULT: 256

QUERY: Recorded MIC of COc1cccc(-c2cc3ccccc3[nH]2)c1 [Compound 1] , please.
RESULT: 8
